Source listed as PubChem BioAssay.

Experiment: binders of probe aFGF10 on microarray, primary screen, stem cell growth factor project, biochemical, small-molecule microarray, fluorescence 635/667 (AID 1071);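 also: score merges 667 nm spot intensity and signal to noise from triplicate slides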
Settings: higher = more signal
Lab note: compare composite z-score against 0.6. Equal or greater, write Criterion met. Smaller, write Criterion not met.

Enquiry: Decide: composite z-score of "O=C1N(Cc2ccccc2)c2ccccc2[C@@H]2OC(c3ccc(OCCCO)cc3)=N[C@]12Cc1ccccc1" >= 0.6?
Return: Criterion not met

Enquiry: Note, next up: CCCCCCCCCCC(O)C1C=CC2C(=O)N(C)C(=O)C2N1NC(=O)OC(C)(C)C (stereo not drawn)
Return: Criterion not met

Enquiry: Note, next up: "O=c1n(-c2ccccc2)c(=O)n2n1CC(COc1ccccc1)=C([C@H](O)CCc1ccccc1)[C@@H]2CO"
Return: Criterion not met

Enquiry: Note, next up: C=C(C)[C@@H]1CC=C(C(O)C2C=CC3C(=O)N(c4ccccc4)C(=O)C3N2Nc2ccccc2F)CC1 (stereo partly drawn)
Return: Criterion met

Enquiry: Note, next up: "C=C(C)c1cc2c(c(CCCCCC)n1)[Si](C(C)C)(C(C)C)OC2"
Return: Criterion not met

Enquiry: Note, next up: "CCOC(=O)C[C@H]1[C@H](OC(=O)c2cc3ccccc3oc2=O)[C@@H](NC(=O)c2ccc(-c3ccccc3)cc2)c2cc(OCCCO)ccc2N1C(=O)c1ccc2ccccc2n1"
Return: Criterion met

Enquiry: Note, next up: "C=C(CCCC)/C(=C/C[C@@H](OC(=O)c1ccncc1)c1ccccc1OCCO)c1cnc2ccccc2c1"
Return: Criterion met

Enquiry: Note, next up: "O=C(N1CCCCC1)[C@@]1(CCS(=O)(=O)c2ccccc2)COC(c2ccc(OCCCO)cc2)=N1"
Return: Criterion not met
